Recorded values, source patent US20250276973A1.

Test: Solid stability test (4 weeks of storage at 80° C., closed system; HPLC)
Format: physicochemical
Conditions: before storage; HPLC, UV 220
parameterMeasured: Chemical purity before storage (%)

For record C#Cc1c(-c2cnc3ccccc3c2)c2c(N)ncnc2n1C12CCC(NC(=O)c3cnc(C)cn3)(CC1)C2 [Type IV crystal of Compound (1) with citric acid] the listed Chemical purity before storage is 99.91

For record C#Cc1c(-c2cnc3ccccc3c2)c2c(N)ncnc2n1C12CCC(NC(=O)c3cnc(C)cn3)(CC1)C2 [Type I crystal of Compound (1) with phosphoric acid] the listed Chemical purity before storage is 99.90

For record C#Cc1c(-c2cnc3ccccc3c2)c2c(N)ncnc2n1C12CCC(NC(=O)c3cnc(C)cn3)(CC1)C2 [Type III crystal in free form] the listed Chemical purity before storage is 99.58

For record C#Cc1c(-c2cnc3ccccc3c2)c2c(N)ncnc2n1C12CCC(NC(=O)c3cnc(C)cn3)(CC1)C2 [Type I crystal of Compound (1) with sorbic acid] the listed Chemical purity before storage is 99.74

For record C#Cc1c(-c2cnc3ccccc3c2)c2c(N)ncnc2n1C12CCC(NC(=O)c3cnc(C)cn3)(CC1)C2 [Type VIII crystal in free form] the listed Chemical purity before storage is 99.62

For record C#Cc1c(-c2cnc3ccccc3c2)c2c(N)ncnc2n1C12CCC(NC(=O)c3cnc(C)cn3)(CC1)C2 [Type I crystal of Compound (1) with citric acid] the listed Chemical purity before storage is 99.75

For record C#Cc1c(-c2cnc3ccccc3c2)c2c(N)ncnc2n1C12CCC(NC(=O)c3cnc(C)cn3)(CC1)C2 [Type III crystal of Compound (1) with succinic acid] the listed Chemical purity before storage is 99.62

For record C#Cc1c(-c2cnc3ccccc3c2)c2c(N)ncnc2n1C12CCC(NC(=O)c3cnc(C)cn3)(CC1)C2 [Type VII crystal in free form] the listed Chemical purity before storage is 99.63

----------
Assay: Plasma concentration determination test after oral administration
Type: in vivo
Conditions: male, beagle, dog, plasma, po, 20 mg/kg, male beagle dogs, gelatin capsule, 20 mg/kg in terms of free form, hypochlorhydria conditions, three dogs
parameterMeasured: Cmax (nM)
// units = nM; emit number, no label

For record C#Cc1c(-c2cnc3ccccc3c2)c2c(N)ncnc2n1C12CCC(NC(=O)c3cnc(C)cn3)(CC1)C2 the listed Cmax is 1260

----------
Experiment: Dynamic vapor sorption (DVS) test
Type: physicochemical
Details: 25° C., 5 to 95% RH
parameterMeasured: Hygroscopicity (result in words)

For record C#Cc1c(-c2cnc3ccccc3c2)c2c(N)ncnc2n1C12CCC(NC(=O)c3cnc(C)cn3)(CC1)C2 [Type I crystal of Compound (1) with phosphoric acid] the listed Hygroscopicity (result in words) is highly hygroscopic

For record C#Cc1c(-c2cnc3ccccc3c2)c2c(N)ncnc2n1C12CCC(NC(=O)c3cnc(C)cn3)(CC1)C2 [Type IV crystal of Compound (1) with citric acid] the listed Hygroscopicity (result in words) is highly hygroscopic

For record C#Cc1c(-c2cnc3ccccc3c2)c2c(N)ncnc2n1C12CCC(NC(=O)c3cnc(C)cn3)(CC1)C2 [Type I crystal of Compound (1) with citric acid] the listed Hygroscopicity (result in words) is highly hygroscopic

For record C#Cc1c(-c2cnc3ccccc3c2)c2c(N)ncnc2n1C12CCC(NC(=O)c3cnc(C)cn3)(CC1)C2 [Type III crystal of Compound (1) with succinic acid] the listed Hygroscopicity (result in words) is hardly hygroscopic

For record C#Cc1c(-c2cnc3ccccc3c2)c2c(N)ncnc2n1C12CCC(NC(=O)c3cnc(C)cn3)(CC1)C2 [Type VIII crystal in free form] the listed Hygroscopicity (result in words) is highly hygroscopic

For record C#Cc1c(-c2cnc3ccccc3c2)c2c(N)ncnc2n1C12CCC(NC(=O)c3cnc(C)cn3)(CC1)C2 [Type I crystal of Compound (1) with sorbic acid] the listed Hygroscopicity (result in words) is hardly hygroscopic

For record C#Cc1c(-c2cnc3ccccc3c2)c2c(N)ncnc2n1C12CCC(NC(=O)c3cnc(C)cn3)(CC1)C2 [Type II crystal of Compound (1) in free form] the listed Hygroscopicity (result in words) is hardly hygroscopic

Now take the following molecule into account.
For record C#Cc1c(-c2cnc3ccccc3c2)c2c(N)ncnc2n1C12CCC(NC(=O)c3cnc(C)cn3)(CC1)C2 [Type VII crystal in free form] the listed Hygroscopicity (result in words) is highly hygroscopic
